assay: Plasma concentrations and pharmacokinetic parameters after topical ocular, subcutaneous and intravitreal administration; assay type: in vivo, New Zealand White rabbits; conditions: New Zealand White, rabbit, plasma, subcutaneous, 5 mg/kg/dose, subcutaneous 5 mg/kg/dose, suspension; 1.0 hr; read-out: plasma Conc., individual rabbit
Measured quantity: concentration at 1 hr

{"columns": ["Compound", "Result"],
 "data": [
  ["COC(=O)N[C@@H](Cc1ccccc1)C(=O)N[C@@H](Cc1ccc(NS(=O)(=O)O)cc1)c1csc(-c2cccs2)n1 [Compound 1 free acid]", "0.3 µg/mL"]
]}

* * *

assay: Plasma concentrations and pharmacokinetic parameters after topical ocular, subcutaneous and intravitreal administration; type: in vivo, New Zealand White rabbits; conditions: New Zealand White, rabbit, plasma, other: intravitreal, 1.55 mg/kg, plasma; intravitreal 2.5 mg/eye (~1.55 mg/kg), solution; read-out: tmax
Where a name gives a salt, the structure may show the parent alone.
Measured quantity: Tmax

{"columns": ["Molecule", "Measured quantity", "Result"],
 "data": [
  ["COC(=O)N[C@@H](Cc1ccccc1)C(=O)N[C@@H](Cc1ccc(NS(=O)(=O)O)cc1)c1csc(-c2cccs2)n1 [Compound 1 sodium salt]", "Tmax", "3 h"]
]}

* * *

experiment: Ocular tissue concentrations (aqueous humor, vitreous humor, iris, retina, choroid, cornea) after topical ocular, subcutaneous and intravitreal administration; assay type: in vivo, New Zealand White rabbits; settings: New Zealand White, rabbit, cornea, subcutaneous, 5 mg/kg/dose, Cornea, 4 hr; sodium salt, subcutaneous 5 mg/kg/dose, Group 2; read-out: Cornea Average
Measured quantity: concentration at 4 h (ng/g)

{"columns": ["Chemical string", "Units symbol", "Result"],
 "data": [
  ["COC(=O)N[C@@H](Cc1ccccc1)C(=O)N[C@@H](Cc1ccc(NS(=O)(=O)O)cc1)c1csc(-c2cccs2)n1", "ng/g", 10.1]
]}

* * *

experiment: Ocular tissue concentrations (aqueous humor, vitreous humor, iris, retina, choroid, cornea) after topical ocular, subcutaneous and intravitreal administration; type: in vivo, New Zealand White rabbits; details: New Zealand White, rabbit, aqueous humor, subcutaneous, 5 mg/kg, Group 3 subcutaneous 5 mg/kg; 1.0 hr; read-out: aqueous humor Average Conc.

{"columns": ["Compound", "concentration at 1 h / ng/g"],
 "data": [
  ["COC(=O)N[C@@H](Cc1ccccc1)C(=O)N[C@@H](Cc1ccc(NS(=O)(=O)O)cc1)c1csc(-c2cccs2)n1 [Compound 1 free acid]", 0.41]
]}

* * *

test: Plasma concentrations and pharmacokinetic parameters after topical ocular, subcutaneous and intravitreal administration; type: in vivo, New Zealand White rabbits; settings: New Zealand White, rabbit, plasma, other: intravitreal, 1.55 mg/kg, plasma; intravitreal 2.5 mg/eye (~1.55 mg/kg), solution
Where a name gives a salt, the structure may show the parent alone.
Measured quantity: MRT last (h)

{"columns": ["Molecule", "Units symbol", "Result"],
 "data": [
  ["COC(=O)N[C@@H](Cc1ccccc1)C(=O)N[C@@H](Cc1ccc(NS(=O)(=O)O)cc1)c1csc(-c2cccs2)n1 [Compound 1 sodium salt]", "h", 15.1]
]}

* * *

assay: Ocular tissue concentrations (aqueous humor, vitreous humor, iris, retina, choroid, cornea) after topical ocular, subcutaneous and intravitreal administration; format: in vivo, New Zealand White rabbits; conditions: New Zealand White, rabbit, choroid, subcutaneous, 5 mg/kg/dose, Choroid, 4 hr, OS; sodium salt, subcutaneous 5 mg/kg/dose, Group 2; read-out: Choroid Conc. (ng/g) OS
Measured quantity: concentration at 4 h (ng/g)

{"columns": ["Chemical string", "Measured quantity", "Result"],
 "data": [
  ["COC(=O)N[C@@H](Cc1ccccc1)C(=O)N[C@@H](Cc1ccc(NS(=O)(=O)O)cc1)c1csc(-c2cccs2)n1", "concentration at 4 h", 13.4]
]}

* * *

assay: Ocular tissue concentrations (aqueous humor, vitreous humor, iris, retina, choroid, cornea) after topical ocular, subcutaneous and intravitreal administration; type: in vivo, New Zealand White rabbits; conditions: New Zealand White, rabbit, cornea, other: intravitreal, 2.5 mg/eye, Cornea, 6.0 hr, OD; sodium salt, intravitreal 2.5 mg/eye, Group 4; read-out: Cornea Conc. (ng/g) OD

{"columns": ["Chemical string", "concentration at 6 hr (ng/g)"],
 "data": [
  ["COC(=O)N[C@@H](Cc1ccccc1)C(=O)N[C@@H](Cc1ccc(NS(=O)(=O)O)cc1)c1csc(-c2cccs2)n1", 69300]
]}

* * *

assay: Plasma concentrations and pharmacokinetic parameters after topical ocular, subcutaneous and intravitreal administration; type: in vivo, New Zealand White rabbits; conditions: New Zealand White, rabbit, plasma, other: intravitreal, 1.54 mg/kg, plasma; intravitreal 2.5 mg/eye (~1.54 mg/kg), suspension; read-out: AUClast (± SE)

{"columns": ["Compound", "AUC(0-t)"],
 "data": [
  ["COC(=O)N[C@@H](Cc1ccccc1)C(=O)N[C@@H](Cc1ccc(NS(=O)(=O)O)cc1)c1csc(-c2cccs2)n1 [Compound 1 free acid]", "0.707 µg·h/mL"]
]}

* * *

assay: Ocular tissue concentrations (aqueous humor, vitreous humor, iris, retina, choroid, cornea) after topical ocular, subcutaneous and intravitreal administration; type: in vivo, New Zealand White rabbits; settings: New Zealand White, rabbit, cornea, subcutaneous, 5 mg/kg/dose, Cornea, 4 hr, OD; free acid, subcutaneous 5 mg/kg/dose, Group 3; read-out: Cornea Conc. (ng/g) OD

{"columns": ["Molecule", "Units symbol", "concentration at 4 h"],
 "data": [
  ["COC(=O)N[C@@H](Cc1ccccc1)C(=O)N[C@@H](Cc1ccc(NS(=O)(=O)O)cc1)c1csc(-c2cccs2)n1 [Compound 1]", "ng/g", 10.4]
]}

* * *

Assay: Ocular tissue concentrations (aqueous humor, vitreous humor, iris, retina, choroid, cornea) after topical ocular, subcutaneous and intravitreal administration
Format: in vivo, New Zealand White rabbits
Conditions: New Zealand White, rabbit, aqueous humor, subcutaneous, 5 mg/kg, Group 2 subcutaneous 5 mg/kg; 0.5 hr; read-out: aqueous humor Average Conc.
Experimental: To measure the concentration of Compound 1 in plasma and ocular tissues following topical ocular, subcutaneous, and intravitreal administration, New Zealand White rabbits were administered Compound 1, and plasma and ocular samples were collected at pre-determined time points. […] Ocular tissue samples from both eyes of each animal were collected and weights were recorded. Plasma and ocular tissue sample concentrations of Compound 1 were determined by LC-MS/MS. […]
Where a name gives a salt, the structure may show the parent alone.

{"columns": ["Molecule", "concentration at 0.5 h, ng/g"],
 "data": [
  ["COC(=O)N[C@@H](Cc1ccccc1)C(=O)N[C@@H](Cc1ccc(NS(=O)(=O)O)cc1)c1csc(-c2cccs2)n1 [Compound 1 sodium salt]", 26.1]
]}

* * *

test: Ocular tissue concentrations (aqueous humor, vitreous humor, iris, retina, choroid, cornea) after topical ocular, subcutaneous and intravitreal administration; type: in vivo, New Zealand White rabbits; settings: New Zealand White, rabbit, cornea, other: intravitreal, 2.5 mg/eye, Cornea, 24 hr, left eye, intravitreal 2.5 mg/eye (group 5), individual animals; read-out: Conc. (ng/g) OS

{"columns": ["Compound", "concentration at 24 hr"],
 "data": [
  ["COC(=O)N[C@@H](Cc1ccccc1)C(=O)N[C@@H](Cc1ccc(NS(=O)(=O)O)cc1)c1csc(-c2cccs2)n1 [Compound 1]", "13100 ng/g"]
]}

* * *

assay: Ocular tissue concentrations (aqueous humor, vitreous humor, iris, retina, choroid, cornea) after topical ocular, subcutaneous and intravitreal administration; assay type: in vivo, New Zealand White rabbits; settings: New Zealand White, rabbit, retina, subcutaneous, 5 mg/kg/dose, Retina, 2 hr, OD; sodium salt, subcutaneous 5 mg/kg/dose, Group 2; read-out: Retina Conc. (ng/g) OD

{"columns": ["Chemical string", "concentration at 2 h"],
 "data": [
  ["COC(=O)N[C@@H](Cc1ccccc1)C(=O)N[C@@H](Cc1ccc(NS(=O)(=O)O)cc1)c1csc(-c2cccs2)n1", "15 ng/g"]
]}

* * *

experiment: Plasma concentrations and pharmacokinetic parameters after topical ocular, subcutaneous and intravitreal administration; format: in vivo, New Zealand White rabbits; conditions: New Zealand White, rabbit, plasma, other: intravitreal, 2.5 mg/eye, intravitreal 2.5 mg/eye (~1.54 mg/kg), suspension; 6.0 hr; read-out: plasma Conc., individual rabbit

{"columns": ["Compound", "Units symbol", "concentration at 6 h"],
 "data": [
  ["COC(=O)N[C@@H](Cc1ccccc1)C(=O)N[C@@H](Cc1ccc(NS(=O)(=O)O)cc1)c1csc(-c2cccs2)n1 [Compound 1 free acid]", "ng/mL", 22]
]}

* * *

test: Ocular tissue concentrations (aqueous humor, vitreous humor, iris, retina, choroid, cornea) after topical ocular, subcutaneous and intravitreal administration; format: in vivo, New Zealand White rabbits; conditions: New Zealand White, rabbit, vitreous humor, other: intravitreal, 2.5 mg per eye, Group 5 intravitreal 2.5 mg per eye; 24 hr; read-out: vitreous humor Conc., individual eyes (OD, OS)

{"columns": ["Compound", "concentration at 24 h, µg/mL"],
 "data": [
  ["COC(=O)N[C@@H](Cc1ccccc1)C(=O)N[C@@H](Cc1ccc(NS(=O)(=O)O)cc1)c1csc(-c2cccs2)n1 [Compound 1 free acid]", 296]
]}
